# Test target: hOT7T175 (Homo sapiens, UniProt Q969F8, L364H)
# Sequence (Q969F8 whole entry L364H): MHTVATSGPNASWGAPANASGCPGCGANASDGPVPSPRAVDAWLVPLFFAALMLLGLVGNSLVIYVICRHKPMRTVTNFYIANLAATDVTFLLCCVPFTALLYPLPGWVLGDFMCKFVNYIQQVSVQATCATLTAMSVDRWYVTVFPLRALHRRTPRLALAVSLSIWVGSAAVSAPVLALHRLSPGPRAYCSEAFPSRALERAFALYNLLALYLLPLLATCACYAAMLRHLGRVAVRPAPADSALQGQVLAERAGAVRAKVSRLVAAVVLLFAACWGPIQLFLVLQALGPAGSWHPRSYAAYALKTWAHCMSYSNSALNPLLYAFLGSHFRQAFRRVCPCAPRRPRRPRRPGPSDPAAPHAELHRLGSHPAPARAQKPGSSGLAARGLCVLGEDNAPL
# Test description: hOT7T175 receptor binding activity: binding inhibition of Cy-5-labeled metastin (40-54) on hOT7T175-expressed CHO cells
Square brackets hold non-standard residues; d marks the D form. Peptide text beside a SMILES is read from it. * marks the point of attachment. NαAmidinoTrp = N=C(N)N[C@@H](Cc1c[nH]c2ccccc12)C(=O)*; Propanoyl(3-(3-pyridyl)) = O=C(CCc1cccnc1)*; 2Nal = N[C@@H](Cc1ccc2ccccc2c1)C(=O)O; Arg(Me) = CNC(=N)NCCC[C@H](N)C(=O)O; Cha = N[C@@H](CC1CCCCC1)C(=O)O; X2 = O=C(Cc1c[nH]c2ccccc12)*; azaGly = NNC(=O)O
Field: class. Source value: IC50. Ranges: low group: < 30 nM; middle group: ≥ 30 nM and < 100 nM; high group: ≥ 100 nM

Compound: CC(C)C[C@H](NC(=O)CNC(=O)[C@H](Cc1ccccc1)NC(=O)[C@H](CO)NC(=O)[C@H](CC(N)=O)NC(=O)[C@H](Cc1cn(C=O)c2ccccc12)NC(=O)[C@H](CC(N)=O)NC(=O)[C@@H](N)Cc1ccc(O)cc1)C(=O)N[C@@H](CCCNC(=N)N)C(=O)N[C@@H](Cc1ccc(C#N)cc1)C(N)=O
Discrete label: low group

Compound: CC(C)C[C@H](NC(=O)CNC(=O)[C@H](CC1CCCCC1)NC(=O)[C@H](CO)NC(=O)[C@H](CC(N)=O)NC(=O)[C@H](Cc1c[nH]c2ccccc12)NC(=O)[C@H](CC(N)=O)NC(=O)[C@@H](N)Cc1ccc(O)cc1)C(=O)N[C@@H](CCCNC(=N)N)C(=O)N[C@@H](Cc1ccccc1)C(N)=O [Compound No. 156] (H-YNWNS[Cha]GLRF-NH2)
Discrete label: middle group

Compound: CNC(N)=NCCC[C@H](NC(=O)[C@H](CC(C)C)NC(=O)NNC(=O)[C@H](Cc1ccccc1)NC(=O)[C@H](CO)NC(=O)[C@H](CC(N)=O)NC(=O)[C@@H](NC(=O)[C@H](CC(N)=O)NC(=O)[C@H](N)Cc1ccc(O)cc1)[C@@H](C)O)C(=O)N[C@@H](Cc1ccccc1)C(N)=O [Compound No. 221] (H-[dY]NTNSF[azaGly]L[Arg(Me)]F-NH2)
Discrete label: middle group

Compound: CNC(=N)NCCC[C@H](NC(=O)[C@H](CC(C)C)NC(=O)NNC(=O)[C@H](Cc1ccccc1)NC(=O)[C@H](CO)NC(=O)[C@H](CC(N)=O)NC(=O)CCc1cccnc1)C(=O)N[C@@H](Cc1ccccc1)C(N)=O [Compound No. 322] ({Propanoyl(3-(3-pyridyl))}-NSF[azaGly]L[Arg(Me)]F-NH2)
Discrete label: middle group

Compound: CNC(=N)NCCC[C@H](NC(=O)[C@H](CC(C)C)NC(=O)NNC(=O)[C@H](Cc1ccccc1)NC(=O)[C@H](CO)NC(=O)[C@H](CC(N)=O)NC(=O)Cc1c[nH]c2ccccc12)C(=O)N[C@@H](Cc1ccccc1)C(N)=O [Compound No. 266] (X2-NSF[azaGly]L[Arg(Me)]F-NH2)
Discrete label: high group

Compound: CNC(=N)NCCC[C@H](NC(=O)[C@H](CC(C)C)NC(=O)CNC(=O)[C@H](Cc1ccccc1)NC(=O)[C@H](CO)NC(=O)[C@H](CC(N)=O)NC(=O)[C@H](CO)NC(=O)[C@H](CC(N)=O)NC(=O)[C@H](N)Cc1ccc(O)cc1)C(=O)N[C@@H](Cc1ccccc1)C(N)=O [Compound No. 170] (H-[dY]NSNSFGL[Arg(Me)]F-NH2; N-terminus assumed)
Discrete label: high group

Compound: CNC(N)=NCCC[C@H](NC(=O)[C@H](CC(C)C)NC(=O)NNC(=O)[C@H](Cc1ccccc1)NC(=O)[C@H](CO)NC(=O)[C@H](CC(N)=O)NC(=O)[C@H](Cc1ccc2ccccc2c1)NC(=O)[C@H](N)Cc1ccc(O)cc1)C(=O)N[C@@H](Cc1ccccc1)C(N)=O [Compound No. 255] (H-[dY][2Nal]NSF[azaGly]L[Arg(Me)]F-NH2)
Discrete label: middle group

Compound: COc1ccc(C[C@H](NC(=O)[C@H](CCCNC(=N)N)NC(=O)[C@H](CC(C)C)NC(=O)CNC(=O)[C@H](Cc2ccccc2)NC(=O)[C@H](CO)NC(=O)[C@H](CC(N)=O)NC(=O)[C@H](Cc2c[nH]c3ccccc23)NC(=O)[C@H](CC(N)=O)NC(=O)[C@@H](N)Cc2ccc(O)cc2)C(N)=O)cc1 [Compound No. 18] (H-YNWNSFGLRY(Me)-NH2)
Discrete label: low group

Compound: CNC(=N)NCCC[C@H](NC(=O)[C@H](CC(C)C)NC(=O)NNC(=O)[C@H](Cc1ccccc1)NC(=O)[C@H](CO)NC(=O)[C@H](CC(N)=O)NC(=O)[C@H](Cc1c[nH]c2ccccc12)NC(=N)N)C(=O)N[C@@H](Cc1ccccc1)C(N)=O [Compound No. 273] (NαAmidinoTrp-NSF[azaGly]L[Arg(Me)]F-NH2)
Discrete label: high group

Compound: CNC(=N)NCCC[C@H](NC(=O)[C@H](CC(C)C)NC(=O)NNC(=O)[C@H](Cc1ccccc1)NC(=O)[C@H](CO)NC(=O)[C@H](CC(N)=O)NC(=O)[C@@H]1CCCN1C(=O)[C@H](CC(N)=O)NC(=O)[C@H](N)Cc1ccc(O)cc1)C(=O)N[C@@H](Cc1ccccc1)C(N)=O [Compound No. 253] (H-[dY]NPNSF[azaGly]L[Arg(Me)]F-NH2)
Discrete label: low group
